details: human gut metagenome, 24 h, 2 µM; note: call rule not given here
Observed property: Bacterial Biotransformation

For orientation, consider the following solved cases.
INSERT INTO measurements (compound, result) VALUES
  ('CCN(CC)C(C)CN1c2ccccc2Sc2ccccc21 (configuration not stated)', 'Compound metabolized'),
  ('NC(CO)(CO)CO.O=C(c1ccccc1)c1ccc2n1CCC2C(=O)O (configuration not stated)', 'Compound metabolized'),
  ('Cc1cc2c(cc1S(N)(=O)=O)S(=O)(=O)CCC2', 'Compound NOT metabolized'),
  ('COc1cc2nc(N(C)CCCNC(=O)C3CCCO3)nc(N)c2cc1OC (configuration not stated)', 'Compound metabolized');

Exam item: Kindly indicate its recorded Bacterial Biotransformation. Item: "Cc1cn([C@H]2C[C@H](N=[N+]=[N-])[C@@H](CO)O2)c(=O)[nH]c1=O"
Marked response: Compound NOT metabolized

Exam item: Given the compound CN1CCC(=C2c3ccccc3CCc3cccnc32)CC1.O=C(O)/C=C\C(=O)O.O=C(O)/C=C\C(=O)O [AZATADINE MALEATE] , write its reported Bacterial Biotransformation.
Marked response: Compound NOT metabolized

----------
settings: human gut metagenome, 24 h, 2 µM
Observed property: Bacterial Biotransformation

INSERT INTO assay_data (molecule, observed_property, result) VALUES
  ('CCN(CC)CCOC(=O)C(Cc1cccc2ccccc12)CC1CCCO1.O=C(O)C(=O)O (centres undefined) [NAFRONYL OXALATE]', 'Bacterial Biotransformation', 'Compound metabolized'),
  ('O=P(O)(O)O.c1ccc(CN(CC2=NCCN2)c2ccccc2)cc1 [ANTAZOLINE PHOSPHATE]', 'Bacterial Biotransformation', 'Compound NOT metabolized'),
  ('c1ccc([C@H]2CN3CCSC3=N2)cc1', 'Bacterial Biotransformation', 'Compound metabolized'),
  ('CCCC(=O)Nc1ccc(OCC(O)CNC(C)C)c(C(C)=O)c1 (centres undefined)', 'Bacterial Biotransformation', 'Compound NOT metabolized');

----------
experiment: The drug is tested on Z-028 corresponding to mouse gut metagenome with ENA study accession number: PRJEB37062 and ENA sample accession number: ERS12561827 for biotransformation under anaerobic condition. The drug concentrations were measured over 9 timepoints collected between 0 and 24 hours of incubation by liquid-chromatography-coupled mass spectrometry (LC–MS); conditions: 2 µM
Observed property: Bacterial Biotransformation

INSERT INTO assay_data (compound, observed_property, result) VALUES
  ('COc1ccc2[nH]c([S+]([O-])Cc3ncc(C)c(OC)c3C)nc2n1 (centres undefined)', 'Bacterial Biotransformation', 'Compound metabolized'),
  ('CCCC1O[C@@H]2C[C@H]3[C@@H]4CCC5=CC(=O)C=C[C@]5(C)[C@H]4[C@@H](O)C[C@]3(C)[C@]2(C(=O)CO)O1 (some centres undefined) [BUDESONIDE]', 'Bacterial Biotransformation', 'Compound metabolized'),
  ('CNS(=O)(=O)Cc1ccc2[nH]cc(CCN(C)C)c2c1.O=C(O)CCC(=O)O [SUMATRIPTAN SUCCINATE]', 'Bacterial Biotransformation', 'Compound NOT metabolized'),
  ('O=C1[C@H](CC[C@H](O)c2ccc(F)cc2)[C@@H](c2ccc(O)cc2)N1c1ccc(F)cc1', 'Bacterial Biotransformation', 'Compound NOT metabolized');

----------
assay: The drug is tested on Z-016 corresponding to mouse gut metagenome with ENA study accession number: PRJEB37062 and ENA sample accession number: ERS12561815 for biotransformation under anaerobic condition. The drug concentrations were measured over 9 timepoints collected between 0 and 24 hours of incubation by liquid-chromatography-coupled mass spectrometry (LC–MS); conditions: 2 µM
Observed property: Bacterial Biotransformation

Below, 5 compounds whose answers are already recorded.
INSERT INTO results (compound, result) VALUES
  ('CCc1nc(N)nc(N)c1-c1ccc(Cl)cc1', 'Compound NOT metabolized'),
  ('COc1cc2nc(N(C)CCCNC(=O)C3CCCO3)nc(N)c2cc1OC (stereo unspecified)', 'Compound NOT metabolized'),
  ('CCCC(=O)Nc1ccc(OCC(O)CNC(C)C)c(C(C)=O)c1 (stereo unspecified)', 'Compound NOT metabolized'),
  ('CNS(=O)(=O)Cc1ccc2[nH]cc(CCN(C)C)c2c1.O=C(O)CCC(=O)O [SUMATRIPTAN SUCCINATE]', 'Compound NOT metabolized'),
  ('O=C(O)COCCN1CCN(C(c2ccccc2)c2ccc(Cl)cc2)CC1 (stereo unspecified)', 'Compound metabolized');

Please turn your attention to the following entry.
Exam item: For the compound "CN1CC(=O)N2[C@H](c3ccc4c(c3)OCO4)c3[nH]c4ccccc4c3C[C@@H]2C1=O" , give its measured Bacterial Biotransformation value.
Marked response: Compound metabolized

----------
settings: human gut metagenome, 24 h, 2 µM
Observed property: Bacterial Biotransformation

INSERT INTO results (query_smiles, observed_property, result) VALUES
  ('CCCCC(=O)N(Cc1ccc(-c2ccccc2-c2nnn[nH]2)cc1)[C@H](C(=O)O)C(C)C', 'Bacterial Biotransformation', 'Compound metabolized'),
  ('CN(C(=O)CN(CCO)CC(=O)N(C)C(C)(C)Cc1ccccc1)C(C)(C)Cc1ccccc1', 'Bacterial Biotransformation', 'Compound metabolized');

----------
experiment: The drug is tested on WLS-069 corresponding to human gut metagenome with ENA study accession number: PRJEB37062 and ENA sample accession number: ERS12561748 for biotransformation under anaerobic condition. The drug concentrations were measured over 9 timepoints collected between 0 and 24 hours of incubation by liquid-chromatography-coupled mass spectrometry (LC–MS); details: 2 µM
Observed property: Bacterial Biotransformation

Guide cases for Bacterial Biotransformation, answers given:
INSERT INTO measurements (molecule, result) VALUES
  ('Cc1ccc(S(=O)(=O)NC(=O)NN2CC3CCCC3C2)cc1 (configuration not stated) [GLICLAZIDE]', 'Compound metabolized'),
  ('CC[C@H](C)C(=O)O[C@H]1C[C@@H](C)C=C2C=C[C@H](C)[C@H](CC[C@@H]3C[C@@H](O)CC(=O)O3)[C@H]21', 'Compound NOT metabolized'),
  ('O=C(Nc1ccccc1)OCC(CN1CCCCC1)OC(=O)Nc1ccccc1 (configuration not stated)', 'Compound metabolized'),
  ('CO[C@]12C[C@@H](COC(=O)c3cncc(Br)c3)CN(C)[C@@H]1Cc1cn(C)c3cccc2c13', 'Compound NOT metabolized'),
  ('CN1C(C(=O)Nc2ccccn2)=C(O)c2sccc2S1(=O)=O', 'Compound NOT metabolized'),
  ('OC(CCN1CCCCC1)(c1ccccc1)C1CC2C=CC1C2 (configuration not stated)', 'Compound NOT metabolized');

Exam item: Annotate the molecule CNS(=O)(=O)Cc1ccc2[nH]cc(CCN(C)C)c2c1.O=C(O)CCC(=O)O [SUMATRIPTAN SUCCINATE] with its measured Bacterial Biotransformation.
Marked response: Compound metabolized

----------
details: human gut metagenome, 24 h, 2 µM
Where a SMILES comes first, the peptide text is derived from it. [ ]: non-standard residue; d: D form. pGlu = O=C1CC[C@@H](C(=O)O)N1; Thz = O=C(O)[C@@H]1CSCN1
Observed property: Bacterial Biotransformation

INSERT INTO results (compound, result) VALUES
  ('CC(C)NCC(O)COc1ccc(CCOCC2CC2)cc1 (configuration not stated)', 'Compound metabolized'),
  ('CS(=O)(=O)O.O.O.O.O=C1Cc2cc(CCN3CCN(c4nsc5ccccc45)CC3)c(Cl)cc2N1 [ZIPRASIDONE MESYLATE]', 'Compound metabolized'),
  ('c1ccc([C@H]2CN3CCSC3=N2)cc1', 'Compound metabolized'),
  ('CS(=O)(=O)O.OC(CCN1CCCCC1)(c1ccccc1)c1ccccc1 [PRIDINOL METHANESULFONATE]', 'Compound metabolized'),
  ('NC(=O)N1c2ccccc2CC(=O)c2ccccc21 [OXCARBAZEPINE]', 'Compound NOT metabolized'),
  ('CC[C@H](C)C(=O)O[C@H]1C[C@@H](C)C=C2C=C[C@H](C)[C@H](CC[C@@H]3C[C@@H](O)CC(=O)O3)[C@H]21', 'Compound NOT metabolized'),
  ('CCOC(=O)[C@H](CCc1ccccc1)N[C@H]1CCc2ccccc2N(CC(=O)O)C1=O', 'Compound metabolized'),
  ('OC(CCN1CCCCC1)(c1ccccc1)C1CC2C=CC1C2 (configuration not stated)', 'Compound metabolized'),
  ('CCC(=O)NCC[C@@H]1CCc2ccc3c(c21)CCO3', 'Compound metabolized'),
  ('O=C1CC[C@@H](C(=O)N2CSC[C@H]2C(=O)O)N1 [PIDOTIMOD] ([pGlu]-[Thz]-OH)', 'Compound NOT metabolized');

Exam item: Specify measured Bacterial Biotransformation for "COC(=O)Nc1nc2ccc(C(=O)c3ccccc3)cc2[nH]1" .
Marked response: Compound metabolized

Exam item: Report measured Bacterial Biotransformation; entry is "CN1CCc2c(c3ccccc3n2Cc2ccccc2)C1.CN1CCc2c(c3ccccc3n2Cc2ccccc2)C1.O=S(=O)(O)c1cccc2c(S(=O)(=O)O)cccc12"
Marked response: Compound metabolized
